Biological target: T1, Full-length human TIGIT on CHO-K1 cells (CHO-K1 human TIGIT) (human, UniProt Q495A1 22-244)
T1 construct: NCBI XP_024309156.1; the entry includes the signal peptide (limits not recoverable); The strain (high, medium, low) is named under assay; also called high expression strain 1D2; medium expression strain 2D10
T1 sequence: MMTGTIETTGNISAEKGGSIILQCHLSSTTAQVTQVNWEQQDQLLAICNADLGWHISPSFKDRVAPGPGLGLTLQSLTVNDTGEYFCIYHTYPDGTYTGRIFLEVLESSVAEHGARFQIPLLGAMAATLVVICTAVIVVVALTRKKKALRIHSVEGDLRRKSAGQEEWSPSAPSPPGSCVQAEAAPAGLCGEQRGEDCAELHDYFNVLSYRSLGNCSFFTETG
Assay: cell binding, CHO-K1 human TIGIT high expression strain
Would you mind telling me the reported pEC50 of each entry?
Answers are plain numbers, as −log10 of the molar value.

Field: pEC50. Fill in for each record below.
1. TIGIT-070-H2L2 (antibody, V domains shown, Humanized anti-TIGIT antibody) VH: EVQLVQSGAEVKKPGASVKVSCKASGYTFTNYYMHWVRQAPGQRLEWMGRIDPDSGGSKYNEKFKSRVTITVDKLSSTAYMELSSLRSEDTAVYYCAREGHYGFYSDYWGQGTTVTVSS VL: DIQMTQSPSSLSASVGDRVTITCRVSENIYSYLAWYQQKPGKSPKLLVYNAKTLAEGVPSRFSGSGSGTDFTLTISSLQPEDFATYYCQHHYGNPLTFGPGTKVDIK
2. TIGIT-005-H2L1d (antibody, V domains shown, Humanized anti-TIGIT antibody with NG-site mutation in VL) VH: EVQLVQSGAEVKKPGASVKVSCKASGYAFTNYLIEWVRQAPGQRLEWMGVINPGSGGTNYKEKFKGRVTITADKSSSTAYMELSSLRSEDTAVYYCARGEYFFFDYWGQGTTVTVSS VL: DIVMTQSPDSLAVSLGERATINCKASQHVSNAVAWYQHKPGQSPKLLIYSASYRYTGVPDRFSGSGSGTDFTLTISSLQAEDVAVYYCQQHYNTPHTFGGGTKVEIK
3. TIGIT-002-H1L2 (antibody, V domains shown, Humanized anti-TIGIT antibody) VH: EVQLQESGPGLVKPSETLSLTCAVSGYSITSDSWNWIRQPPGKGLEWIGYISYSGNTYYNPSLKSRVTISRDTSKNQFSLKLSSVTAADTAVYYCARLDFSNYGGAVDYWGQGTTVTVSS VL: DIVMTQTPLSLSVTPGQPASISCKASQNVRTAVAWYQQKPGQSPQLMIYSASYRYTGVPDRFSGSGSGTDFTLKISRVEAEDVGVYYCQQYYTTPWTFGGGTKVEIK

Solution:
[10.51, 10.36, 10.78]

The reported measurements were obtained from patent US20240343803A1.
